# Species: Rattus norvegicus
# Procedure details: Open TG-GATES - Regimen: Single
# Assay type: toxicity, organism-based, Sprague-Dawley
# Parameters: regimen Single, gender Male, age 6 weeks
# Assay context: in vivo, po, 0 mg/kg, 9 h, tissue Plasma, route gavage, dose level Control
Record form. Attribute: TG. Fill in for each entry.
# value in mg/dL; strip the unit string

State the recorded TG for this entry: CN/C(=N/CCSCc1nc[nH]c1C)NC#N [CIMETIDINE]
47.8

State the recorded TG for this entry: CC(C)NNC(=O)c1ccncc1 [IPRONIAZID]
39.8

State the recorded TG for this entry: Brc1ccccc1 [BROMOBENZENE]
39.6

State the recorded TG for this entry: NC1=NC(=O)C(c2ccccc2)O1 (stereo not given) [PEMOLINE]
27.6

State the recorded TG for this entry: CCOc1ccc(NC(C)=O)cc1 [PHENACETIN]
44.2

----------
# Species on record: Rattus norvegicus
# Procedure details: Open TG-GATES - Regimen: Daily Repeat
# Type: toxicity, organism-based, Sprague-Dawley
# Set-up: regimen Daily Repeat, gender Male, age 6 weeks
# Assay context: in vivo, po, 1000 mg/kg, […], tissue Plasma, route gavage, dose level High, time 14 day
Experimental readout: TG (mg/dL)
# value in mg/dL; strip the unit string

State the recorded TG for this entry: CNC(=C[N+](=O)[O-])NCCSCc1ccc(CN(C)C)o1 [RANITIDINE]
104

State the recorded TG for this entry: O=C(OC[C@H]1O[C@@H](OC(=O)c2cc(O)c(O)c(OC(=O)c3cc(O)c(O)c(O)c3)c2)[C@H](OC(=O)c2cc(O)c(O)c(OC(=O)c3cc(O)c(O)c(O)c3)c2)[C@@H](OC(=O)c2cc(O)c(O)c(OC(=O)c3cc(O)c(O)c(O)c3)c2)[C@@H]1OC(=O)c1cc(O)c(O)c(OC(=O)c2cc(O)c(O)c(O)c2)c1)c1cc(O)c(O)c(OC(=O)c2cc(O)c(O)c(O)c2)c1 [TANNIC ACID]
115.8

State the recorded TG for this entry: COC(=O)C1=C(C)NC(C)=C(C(=O)OC)C1c1ccccc1[N+](=O)[O-] [NIFEDIPINE]
101.8

State the recorded TG for this entry: CCOc1ccc(NC(C)=O)cc1 [PHENACETIN]
171.4

State the recorded TG for this entry: Cc1nnc2n1-c1ccc(Cl)cc1C(c1ccccc1Cl)=NC2 [TRIAZOLAM]
127.4

State the recorded TG for this entry: CN/C(=N/CCSCc1nc[nH]c1C)NC#N [CIMETIDINE]
111.2

----------
# Species: Rattus norvegicus
# Procedure details: Open TG-GATES - Regimen: Single
# Format: toxicity, organism-based, Sprague-Dawley
# Parameters: regimen Single, gender Male, age 6 weeks
# Assay context: in vivo, po, 0 mg/kg, 6 h, route gavage, dose level Control
Experimental readout: TERMINAL_BW (g)
# value in g; strip the unit string

State the recorded TERMINAL_BW for this entry: CN/C(=N/CCSCc1nc[nH]c1C)NC#N
211.8

State the recorded TERMINAL_BW for this entry: CCCc1cc(=O)[nH]c(=S)[nH]1
178.3

State the recorded TERMINAL_BW for this entry: CCOc1ccc(NC(C)=O)cc1
211

State the recorded TERMINAL_BW for this entry: Brc1ccccc1
191.8

----------
# Species on record: Rattus norvegicus
# Procedure details: Open TG-GATES - Regimen: Single
# Type: toxicity, organism-based, Sprague-Dawley
# Set-up: regimen Single, gender Male, age 6 weeks
# Assay context: in vivo, po, 100 mg/kg, 6 h, tissue Liver, route gavage, dose level Low
Record form. Attribute: LIVER. Fill in for each entry.
# value in g; strip the unit string

State the recorded LIVER for this entry: COC(=O)C1=C(C)NC(C)=C(C(=O)OC)C1c1ccccc1[N+](=O)[O-]
7.8

State the recorded LIVER for this entry: O=C(OC[C@H]1O[C@@H](OC(=O)c2cc(O)c(O)c(OC(=O)c3cc(O)c(O)c(O)c3)c2)[C@H](OC(=O)c2cc(O)c(O)c(OC(=O)c3cc(O)c(O)c(O)c3)c2)[C@@H](OC(=O)c2cc(O)c(O)c(OC(=O)c3cc(O)c(O)c(O)c3)c2)[C@@H]1OC(=O)c1cc(O)c(O)c(OC(=O)c2cc(O)c(O)c(O)c2)c1)c1cc(O)c(O)c(OC(=O)c2cc(O)c(O)c(O)c2)c1
8.5

State the recorded LIVER for this entry: CN/C(=N/CCSCc1nc[nH]c1C)NC#N
9.7

State the recorded LIVER for this entry: CNC(=C[N+](=O)[O-])NCCSCc1ccc(CN(C)C)o1
9.3

State the recorded LIVER for this entry: Cc1nnc2n1-c1ccc(Cl)cc1C(c1ccccc1Cl)=NC2
8.1

----------
# Species: Rattus norvegicus
# Procedure details: Open TG-GATES - Regimen: Single
# Format: toxicity, organism-based, Sprague-Dawley
# Design: regimen Single, gender Male, age 6 weeks
# Assay context: in vivo, po, 1000 mg/kg, 9 h, tissue Blood, route gavage, dose level High
Record form. Attribute: Fbg. Fill in for each entry.
# value in mg/dL; strip the unit string

State the recorded Fbg for this entry: Cc1nnc2n1-c1ccc(Cl)cc1C(c1ccccc1Cl)=NC2 [TRIAZOLAM]
282.6

State the recorded Fbg for this entry: O=C(OC[C@H]1O[C@@H](OC(=O)c2cc(O)c(O)c(OC(=O)c3cc(O)c(O)c(O)c3)c2)[C@H](OC(=O)c2cc(O)c(O)c(OC(=O)c3cc(O)c(O)c(O)c3)c2)[C@@H](OC(=O)c2cc(O)c(O)c(OC(=O)c3cc(O)c(O)c(O)c3)c2)[C@@H]1OC(=O)c1cc(O)c(O)c(OC(=O)c2cc(O)c(O)c(O)c2)c1)c1cc(O)c(O)c(OC(=O)c2cc(O)c(O)c(O)c2)c1 [TANNIC ACID]
221

State the recorded Fbg for this entry: CNC(=C[N+](=O)[O-])NCCSCc1ccc(CN(C)C)o1 [RANITIDINE]
242.2

State the recorded Fbg for this entry: CN/C(=N/CCSCc1nc[nH]c1C)NC#N [CIMETIDINE]
229.2

State the recorded Fbg for this entry: COC(=O)C1=C(C)NC(C)=C(C(=O)OC)C1c1ccccc1[N+](=O)[O-] [NIFEDIPINE]
287

----------
# Species on record: Rattus norvegicus
# Procedure details: Open TG-GATES - Regimen: Single
# Type: toxicity, organism-based, Sprague-Dawley
# Parameters: regimen Single, gender Male, age 6 weeks
# Assay context: in vivo, po, 0 mg/kg, 3 h, tissue Blood, route gavage, dose level Control
Record form. Attribute: Lym. Fill in for each entry.
Write the figure, then the unit, nothing else.

State the recorded Lym for this entry: CN/C(=N/CCSCc1nc[nH]c1C)NC#N
75.4%

State the recorded Lym for this entry: CCCc1cc(=O)[nH]c(=S)[nH]1
78.6%

State the recorded Lym for this entry: Brc1ccccc1
72.8%

State the recorded Lym for this entry: Nc1c2c(nc3ccccc13)CCCC2
81.6%

State the recorded Lym for this entry: CC(C)NNC(=O)c1ccncc1
82.2%

State the recorded Lym for this entry: CN(C)CCC(c1ccc(Cl)cc1)c1ccccn1 (centres undefined)
77.4%

State the recorded Lym for this entry: Cc1nnc2n1-c1ccc(Cl)cc1C(c1ccccc1Cl)=NC2
76%

State the recorded Lym for this entry: O=C(OC[C@H]1O[C@@H](OC(=O)c2cc(O)c(O)c(OC(=O)c3cc(O)c(O)c(O)c3)c2)[C@H](OC(=O)c2cc(O)c(O)c(OC(=O)c3cc(O)c(O)c(O)c3)c2)[C@@H](OC(=O)c2cc(O)c(O)c(OC(=O)c3cc(O)c(O)c(O)c3)c2)[C@@H]1OC(=O)c1cc(O)c(O)c(OC(=O)c2cc(O)c(O)c(O)c2)c1)c1cc(O)c(O)c(OC(=O)c2cc(O)c(O)c(O)c2)c1
79.4%

State the recorded Lym for this entry: CNC(=C[N+](=O)[O-])NCCSCc1ccc(CN(C)C)o1
83.4%

----------
# Organism: Rattus norvegicus
# Procedure details: Open TG-GATES - Regimen: Daily Repeat
# Format: toxicity, organism-based, Sprague-Dawley
# Design: regimen Daily Repeat, gender Male, age 6 weeks
# Assay context: in vivo, po, 300 mg/kg, […], tissue Plasma, route gavage, dose level Middle, time 28 day
Record form. Attribute: ALT. Fill in for each entry.
# value in IU/L; strip the unit string

State the recorded ALT for this entry: O=C(OC[C@H]1O[C@@H](OC(=O)c2cc(O)c(O)c(OC(=O)c3cc(O)c(O)c(O)c3)c2)[C@H](OC(=O)c2cc(O)c(O)c(OC(=O)c3cc(O)c(O)c(O)c3)c2)[C@@H](OC(=O)c2cc(O)c(O)c(OC(=O)c3cc(O)c(O)c(O)c3)c2)[C@@H]1OC(=O)c1cc(O)c(O)c(OC(=O)c2cc(O)c(O)c(O)c2)c1)c1cc(O)c(O)c(OC(=O)c2cc(O)c(O)c(O)c2)c1
32.2

State the recorded ALT for this entry: CNC(=C[N+](=O)[O-])NCCSCc1ccc(CN(C)C)o1
34.6

State the recorded ALT for this entry: CCOc1ccc(NC(C)=O)cc1
40

State the recorded ALT for this entry: COC(=O)C1=C(C)NC(C)=C(C(=O)OC)C1c1ccccc1[N+](=O)[O-]
40

State the recorded ALT for this entry: CN/C(=N/CCSCc1nc[nH]c1C)NC#N
39.4

State the recorded ALT for this entry: Cc1nnc2n1-c1ccc(Cl)cc1C(c1ccccc1Cl)=NC2
36.4
